molecular target: JAK3 (catalytic domain, His-tag) (Homo sapiens, UniProt P52333); construct: All four purified enzymes contain only the catalytic domain; His (N); purchased Carna Biosciences, Inc; host or cells: baculovirus expression system; experiment: JAK kinase assay (HTRF, phosphorylation of TK substrate-biotin), JAK3; assay type: biochemical; settings: HTRF assay, ATP at Km (2 μM); read-out: JAK3 kinase inhibitory activity (EC50 indicator)
Sequence (P52333 822-1111 limits assumed): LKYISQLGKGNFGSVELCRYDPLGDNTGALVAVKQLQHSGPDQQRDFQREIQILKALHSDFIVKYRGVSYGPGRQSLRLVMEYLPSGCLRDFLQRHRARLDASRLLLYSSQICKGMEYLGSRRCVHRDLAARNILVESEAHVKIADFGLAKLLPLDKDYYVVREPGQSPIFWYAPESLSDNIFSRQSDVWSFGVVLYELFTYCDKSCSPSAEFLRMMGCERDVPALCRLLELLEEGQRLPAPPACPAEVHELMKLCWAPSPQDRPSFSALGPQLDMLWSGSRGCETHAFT
The following compounds are shown together with reported EC50 values.

> print(dat)
                            compound.string      obs.value
1  O=C(c1ccccc1)N1CCN(c2ccnc3[nH]ccc23)CC12CC2  100 to 500 nM
2  N#Cc1ccc(C(=O)C(=O)N2CCN(c3ncnc4[nH]ccc34)CC23CC3)cc1  100 to 500 nM
3  O=C(c1cc2c(F)cccc2[nH]1)N1CCN(c2ncnc3[nH]ccc23)CC12CC2  100 to 500 nM
4  O=C(c1ccc(OC(F)(F)F)cc1)N1CCN(c2ccnc3[nH]ccc23)CC12CC2       > 500 nM
5  O=C(c1csc2ccccc12)N1[C@H]2CC[C@H]1CN(c1ncnc3[nH]ccc13)C2       < 100 nM
6  O=C(c1ccccn1)N1CCN(c2ccnc3[nH]ccc23)CC12CC2       > 500 nM

Problem: Fill blank: measured EC50 of the compound Cc1c[nH]c2ncnc(N3CCN(C(=O)Cc4ccc(C#N)cc4)C4(CC4)C3)c12 is ____.
Solution: < 100 nM

Problem: Fill blank: measured EC50 of the compound N#Cc1ccc(C(=O)N2CCN(c3ncnc4[nH]cc(Cl)c34)CC23CC3)cc1 is ____.
Solution: > 500 nM
